target: Nicotinic acetylcholine receptor alpha4/beta2/alpha5 (Homo sapiens) (UniProt P17787+P43681+P30532); assay: Positive allosteric modulation of human alpha4beta2alpha5 nACHR expressed in HEK-tsA201 cells assessed as potentiation of nicotine-induced current at 1 uM preincubated for 15 mins followed by nicotine-treatment by fluorometric analysis; assay type: cell-based
The source made the active and inactive calls. The calls are words filed in the database; no cut-off is given here.
Property: Activity

Answered examples (10):
| Smiles Repr | Activity |
| --- | --- |
| Cc1ccc(-n2nnc(-c3cccnc3)n2)cc1C#N | inactive |
| Clc1cc(Cl)cc(-n2nnc(-c3cccnc3)n2)c1 | inactive |
| N#Cc1cccc(-n2nnc(-c3cncc(Cl)c3)n2)c1 | inactive |
| C[n+]1cccc(-c2noc(-c3cccc(C#N)c3)n2)c1 | inactive |
| Fc1ccc(-n2nnc(-c3cccnc3)n2)c(F)c1 | inactive |
| c1cncc(-c2noc(-c3cccnc3)n2)c1 | > 50% |
| N#Cc1cccc(-c2ncn(-c3cccnc3)n2)c1 | inactive |
| N#Cc1cccc(-n2nnc(-c3ccncc3)n2)c1 | inactive |
| Brc1cccc(-n2nnc(-c3cccnc3)n2)c1 | inactive |
| N#Cc1cccc(-n2nnc(-c3cccnc3Cl)n2)c1 | inactive |

Below is a list of molecules. For each, state its recorded Activity.
1. N#Cc1ccc(-n2nnc(-c3cccnc3)n2)cc1
2. N#Cc1cccc(-c2nc(-c3ccncc3)no2)c1
3. N#Cc1cccc(-n2nnc(-c3ccccc3)n2)c1

Response line:
["> 50%", "inactive", "inactive"]

Values compiled from ChEMBL document CHEMBL3102781.
